Below is a list of entries, each paired with its recorded pIC50 value.
# system_under_test: TYK2-JH2 (aa 575-869, in-house) protein (Homo sapiens, UniProt P29597)
# Construct: TYK2-JH2 (aa 575-869, in-house) protein; made in house
# Sequence (P29597 575-869): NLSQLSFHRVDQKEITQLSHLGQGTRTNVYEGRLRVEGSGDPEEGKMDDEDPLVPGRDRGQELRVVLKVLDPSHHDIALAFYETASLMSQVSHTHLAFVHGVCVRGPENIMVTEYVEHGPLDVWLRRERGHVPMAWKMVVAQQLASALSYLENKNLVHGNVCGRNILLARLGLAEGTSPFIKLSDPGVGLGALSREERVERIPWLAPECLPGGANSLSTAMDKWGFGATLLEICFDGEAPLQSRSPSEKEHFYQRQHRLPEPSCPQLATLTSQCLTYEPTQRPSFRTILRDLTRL
# protocol_notes: TYK2-JH2 biochemical assay (HTRF probe displacement)
# Assay type: binding
# applied_conditions: Biochemical assay; read-out: TYK2-JH2 IC50
pIC50: −log10 of the molar value.
property_name: pIC50

smiles: CC(=O)Nc1cc(Nc2cc(OC[C@H](C)O)cc(S(C)(=O)=O)c2)c(-c2ccn(C)n2)cn1
value_measured: 10.48
--
smiles: CC(=O)Nc1cc(Nc2cc(C)cc(S(C)(=O)=O)n2)c(-c2ccn(C3CC3)n2)cn1
value_measured: 10.51
--
smiles: CC(=O)Nc1cc(Nc2cc(C)cc(S(C)(=O)=O)c2)c(-c2ccc(C(C)(C)O)cn2)cn1
value_measured: 10.62
--
smiles: CC(=O)Nc1cc(Nc2cc(OC(C)C)cc(S(C)(=O)=O)n2)c(-c2ccn(C(C)C)n2)cn1
value_measured: 10.51

====

# system_under_test: TYK2-JH2 (aa 575-869, in-house) protein (Homo sapiens, UniProt P29597)
# Construct: TYK2-JH2 (aa 575-869, in-house) protein; made in house
# protocol_notes: TYK2-JH2 biochemical assay (HTRF probe displacement)
# Type: binding
# applied_conditions: Biochemical assay; read-out: TYK2-JH2 IC50
property_name: IC50 (nM)

compound: CC(=O)Nc1cc(Nc2cc(OCCO)cc(S(C)(=O)=O)c2)c(-c2cc(C)n(C)n2)cn1
property_name: IC50
value_measured: 0.033
--
compound: CC(=O)Nc1cc(Nc2cc(OCC3COC3)cc(S(C)(=O)=O)n2)c(-c2ccc(C(C)(C)O)cn2)cn1
property_name: IC50
value_measured: 0.022
--
compound: CC(=O)Nc1cc(Nc2cc(OCC(C)C)cc(S(C)(=O)=O)n2)c(-c2ccn(C)n2)cn1
property_name: IC50
value_measured: 0.029
--
compound: CC(=O)Nc1cc(Nc2cc(C(F)(F)F)cc(S(C)(=O)=O)c2)c(-c2ccn(C)n2)cn1
property_name: IC50
value_measured: 0.12
--
compound: COCc1ccc(-c2cnc(NC(C)=O)cc2Nc2cc(OCCO)cc(S(C)(=O)=O)n2)nc1
property_name: IC50
value_measured: 0.029
--
compound: CC(=O)Nc1cc(Nc2cc(C#N)cc(S(C)(=O)=O)n2)c(-c2ccc3c(n2)OCC(C)(C)O3)cn1
property_name: IC50
value_measured: 0.051
--
compound: CC(=O)Nc1cc(Nc2cc(C3CCOCC3)cc(S(C)(=O)=O)n2)c(-c2ccc3c(n2)OCC(C)(C)O3)nn1
property_name: IC50
value_measured: 0.097
--
compound: CC(=O)Nc1cc(Nc2cc(C(F)F)cc(S(C)(=O)=O)c2)c(-c2ccc(C(C)(C)O)cn2)cn1
property_name: IC50
value_measured: 0.038
--
compound: CC(=O)Nc1cc(Nc2cc(-c3c(C)noc3C)cc(S(C)(=O)=O)n2)c(-c2ccc3c(n2)OCC(C)(C)O3)cn1
property_name: IC50
value_measured: 0.033
--
compound: CC(=O)Nc1cc(Nc2cc(N3CCC(O)C3)cc(S(C)(=O)=O)c2)c(-c2ccc(C(C)(C)O)cn2)cn1 (stereo not drawn)
property_name: IC50
value_measured: 0.034
--
compound: CCn1ccc(-c2cnc(NC(C)=O)cc2Nc2cc(OC(C)C)cc(S(C)(=O)=O)n2)n1
property_name: IC50
value_measured: 0.032
--
compound: CCn1ccc(-c2cnc(NC(C)=O)cc2Nc2cc(COC)cc(S(C)(=O)=O)n2)n1
property_name: IC50
value_measured: 0.026
--
compound: COCCOc1cc(Nc2cc(NC(C)=O)ncc2-c2cc(C)n(C)n2)nc(S(C)(=O)=O)c1
property_name: IC50
value_measured: 0.039
--
compound: COCCOc1cc(Nc2cc(NC(C)=O)ncc2-c2ccn(C(C)C)n2)nc(S(C)(=O)=O)c1
property_name: IC50
value_measured: 0.032
--
compound: CC(=O)Nc1cc(Nc2cc(C)cc(S(C)(=O)=O)n2)c(-c2cc3c(cn2)OCCO3)cn1
property_name: IC50
value_measured: 0.023
